target: Kv1.5 (Homo sapiens, UniProt P22460); assay: Kv1.5 inhibition assay (IKur inhibitor assay per cited references); assay type: cell-based; conditions: at 0.3 μM
Sequence (P22460 whole entry): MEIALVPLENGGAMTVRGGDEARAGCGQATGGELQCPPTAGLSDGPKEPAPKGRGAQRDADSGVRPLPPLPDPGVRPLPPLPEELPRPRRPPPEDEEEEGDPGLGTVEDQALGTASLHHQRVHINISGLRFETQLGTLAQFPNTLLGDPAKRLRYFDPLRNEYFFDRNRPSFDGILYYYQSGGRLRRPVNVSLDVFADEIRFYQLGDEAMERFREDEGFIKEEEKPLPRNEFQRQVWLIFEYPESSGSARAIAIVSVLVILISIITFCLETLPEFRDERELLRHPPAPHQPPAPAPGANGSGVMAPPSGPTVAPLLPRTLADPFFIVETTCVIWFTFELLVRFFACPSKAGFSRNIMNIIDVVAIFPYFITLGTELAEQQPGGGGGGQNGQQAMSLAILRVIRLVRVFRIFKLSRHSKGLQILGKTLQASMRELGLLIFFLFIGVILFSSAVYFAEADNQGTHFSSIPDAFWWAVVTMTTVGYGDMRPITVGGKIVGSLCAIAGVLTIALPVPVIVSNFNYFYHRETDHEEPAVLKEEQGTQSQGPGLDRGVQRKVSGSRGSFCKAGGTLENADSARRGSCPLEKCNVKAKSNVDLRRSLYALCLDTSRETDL
Readout Name: Kv1.5% inhibition (%)

CCCCS(=O)(=O)C1=C(C)Nc2cc(C)nn2C1c1ccc(Cl)c(Cl)c1 (single isomer, unassigned) [Example 18 Isomer 2] = 28.8
CC1=C(S(=O)(=O)N2CCCC2)C(c2ccc(Cl)c(Cl)c2)n2nc(C)cc2N1 (single isomer, unassigned) [Example 53 Isomer 2] = 54.7
CC1=C(S(=O)(=O)N2CCCC2)C(c2ccc(Cl)c(Cl)c2)n2nc(C(F)(F)F)cc2N1 (single isomer, unassigned) [Example 59 Isomer 2] = 86.4
CC1=C(S(=O)(=O)c2ccc(F)cc2)C(c2ccc(Cl)c(Cl)c2)n2nc(C)cc2N1 (single isomer, unassigned) [Example 1 Isomer 1] = 98
COc1ccc(S(=O)(=O)C2=C(CO)Nc3cc(C(F)(F)F)nn3C2c2ccc(Cl)cc2)cc1 (single isomer, unassigned) [Example 49 Isomer 1] = 19.6

(a) CC1=C(C(=O)N(C)S(=O)(=O)c2ccccc2)C(c2ccc(Cl)c(Cl)c2)n2nc(C)cc2N1 (single isomer, unassigned) [Example 79 Isomer 2]
(b) CCN(C(=O)C1=C(C)Nc2cc(C(F)(F)F)nn2C1c1ccc(Cl)c(Cl)c1)S(=O)(=O)c1ccc(Cl)cc1 (single isomer, unassigned) [Example 93 Isomer 2]
[ask] Which entry has a larger number for Kv1.5% inhibition, a or b ? Answer by stating the label of the chosen item.
[reply] a
(a: 88%, b: 27%)

(I) COc1ccc(S(=O)(=O)C2=C(C)Nc3cc(C(F)(F)F)nn3C2c2ccc(Cl)cc2)cc1OC (single isomer, unassigned) [Example 51 Isomer 2]
(II) CC1=C(S(=O)(=O)N2CCCC2)C(c2ccc(Cl)cc2)n2nc(C(F)(F)F)cc2N1 (single isomer, unassigned) [Example 67 Isomer 2]
[ask] Field: lower Kv1.5% inhibition | Options: I / II Bench note: the answer is the label of the chosen record.
[reply] II

====

molecular target: Kv1.5 (Homo sapiens, UniProt P22460); assay: Kv1.5 inhibition assay (IKur inhibitor assay per cited references); format: cell-based; conditions: at 0.3 μM
Readout Name: inhibition at 0.3 µM (%)

Here's what some known entries look like.
CC1=C(S(=O)(=O)NC2CCCCC2)C(c2ccc(Cl)c(Cl)c2)n2nc(C)cc2N1 (single isomer, unassigned) [Example 38 Isomer 2] = 27.6
CC1=C(S(=O)(=O)NC(C)(C)C)C(c2ccc(Cl)cc2)n2nc(C(F)(F)F)cc2N1 (single isomer, unassigned) [Example 57 Isomer 1] = 48.6

(A) CC1=C(S(=O)(=O)c2ccc(Cl)cc2)C(c2ccc(C)c(F)c2)n2nc(C(F)(F)F)cc2N1 (single isomer, unassigned) [Example 42 Isomer 1]
(B) CC1=C(S(=O)(=O)c2ccccc2)C(c2ccc(F)cc2)n2nc(C(F)(F)F)cc2N1 (single isomer, unassigned) [Example 36 Isomer 2]
[ask] Please indicate which entry, A or B , has the lower recorded inhibition at 0.3 µM value. Write down the label attached to your selection.
[reply] B

(1) CC1=C(S(=O)(=O)NCc2ccccc2)C(c2ccc(Cl)c(Cl)c2)n2nc(C(F)(F)F)cc2N1 (single isomer, unassigned) [Example 56 Isomer 1]
(2) CC1=C(S(=O)(=O)N(C)c2ccccc2)C(c2ccc(Cl)c(Cl)c2)n2nc(C)cc2N1 (racemic)
(3) CC1=C(S(=O)(=O)NCc2ccccc2)C(c2ccc(Cl)cc2)n2nc(C(F)(F)F)cc2N1 (racemic)
[ask] Could you please order the items by inhibition at 0.3 µM, going from the lowest number to the highest? Reply format: the labels, ordered as requested.
[reply] 3, 1, 2

====

target: Kv1.5 (Homo sapiens, UniProt P22460); test: Kv1.5 inhibition assay (IKur inhibitor assay per cited references); assay type: cell-based; conditions: at 0.3 μM
Readout Name: Kv1.5% inhibition (%)

CC1=C(C(=O)N(C)S(=O)(=O)c2ccc(F)cc2)C(c2ccc(Cl)c(Cl)c2)n2nc(C)cc2N1 (single isomer, unassigned) [Example 80 Isomer 1] = 37

(I) CC1=C(S(=O)(=O)c2ccccc2)C(c2ccc(Cl)c(F)c2)n2nc(C)cc2N1 (single isomer, unassigned) [Example 7 Isomer 2]
(II) CC1=C(S(=O)(=O)c2ccccn2)C(c2ccc(Cl)c(Cl)c2)n2nc(C)cc2N1 (single isomer, unassigned) [Example 11 Isomer 2]
[ask] Select one: I or II . Criterion: greater recorded Kv1.5% inhibition. Your answer should be the label attached to the chosen record.
[reply] I

====

target: Kv1.5 (Homo sapiens, UniProt P22460); assay: Kv1.5 inhibition assay (IKur inhibitor assay per cited references); assay type: cell-based; settings: at 0.3 μM
Readout Name: inhibition at 0.3 µM (%)

The examples below pair each entry with its known result.
CC1=C(S(=O)(=O)c2ccc(Cl)cc2)C(c2ccc(Cl)c(Cl)c2)n2nc(C(F)(F)F)cc2N1 (single isomer, unassigned) [Example 4 Isomer 2] = 36.2
COc1ccc(S(=O)(=O)C2=C(C)Nc3cc(C)nn3C2c2cccc(Cl)c2)cc1 (single isomer, unassigned) [Example 17 Isomer 2] = 18.1

(a) CC1=C(S(=O)(=O)N2CCN(c3ccccc3)CC2)C(c2ccc(Cl)c(Cl)c2)n2nc(C(F)(F)F)cc2N1 (racemic)
(b) CC1=C(S(=O)(=O)c2ccc(Cl)cc2)C(c2cncnc2)n2nc(C(F)(F)F)cc2N1 (single isomer, unassigned) [Example 50 Isomer 1]
(c) Cc1nc2cc(C(F)(F)F)nn2c(-c2ccc(Cl)c(Cl)c2)c1C(=O)N(C)S(=O)(=O)c1ccccc1 (racemic)
(d) CC1=C(C(=O)N(C)S(=O)(=O)c2c(C)noc2C)C(c2ccc(Cl)c(Cl)c2)n2nc(C)cc2N1 (single isomer, unassigned) [Example 94 Isomer 1]
[ask] Order the records by inhibition at 0.3 µM, with each subsequent value no larger than the one before. Enter labels, ranked according to the request.
[reply] d, c, a, b

====

biological target: Kv1.5 (Homo sapiens, UniProt P22460); test: Kv1.5 inhibition assay (IKur inhibitor assay per cited references); format: cell-based; settings: at 0.3 μM
Readout Name: inhibition at 0.3 µM (%)

Recorded inhibition at 0.3 µM, per entry:
CC1=C(C(=O)N(C)S(=O)(=O)c2ccc(Cl)cc2)C(c2ccc(Cl)c(Cl)c2)n2nccc2N1 (racemic) = 89
CC1=C(S(=O)(=O)Cc2ccccc2)C(c2ccc(Cl)c(Cl)c2)n2nc(C(F)(F)F)cc2N1 (racemic) = 37.2

(P) CC1=C(C(=O)N(C)S(=O)(=O)c2ccc(Cl)cc2)C(c2ccc(Cl)c(Cl)c2)n2nc(C(F)(F)F)cc2N1 (racemic)
(Q) CCN(CC)S(=O)(=O)C1=C(C)Nc2cc(C(F)(F)F)nn2C1c1ccc(Cl)c(Cl)c1 (single isomer, unassigned) [Example 64 Isomer 1]
(R) CC1=C(S(=O)(=O)N2CCCC2)C(c2ccc(Cl)c(Cl)c2)n2nc(C)nc2N1 (racemic)
[ask] Task for the reader: rank each entry by its inhibition at 0.3 µM, from the minimum upward. Form entry: ranked labels (order as requested).
[reply] R, P, Q
(R: 7%, P: 40%, Q: 76.2%)

====

biological target: Kv1.5 (Homo sapiens, UniProt P22460); assay: Kv1.5 inhibition assay (IKur inhibitor assay per cited references); assay type: cell-based; conditions: at 0.3 μM
Readout Name: Kv1.5% inhibition (%)

CCCCS(=O)(=O)C1=C(C)Nc2cc(C)nn2C1c1ccc(Cl)c(Cl)c1 (single isomer, unassigned) [Example 18 Isomer 1] = 84.6
CC1=C(C(=O)N(C)S(=O)(=O)c2c(C)noc2C)C(c2ccc(Cl)c(Cl)c2)n2nc(C)cc2N1 (single isomer, unassigned) [Example 94 Isomer 2] = 63
CC1=C(S(=O)(=O)c2ccccn2)C(c2ccc(Cl)c(Cl)c2)n2nc(C)cc2N1 (single isomer, unassigned) [Example 11 Isomer 1] = 72.5

====

target: Kv1.5 (Homo sapiens, UniProt P22460); assay: Kv1.5 inhibition assay (IKur inhibitor assay per cited references); assay type: cell-based; conditions: at 0.3 μM
Readout Name: Kv1.5% inhibition (%)

(1) COc1ccc(S(=O)(=O)C2=C(C)Nc3cc(C)nn3C2c2nc3ccccc3n2C)cc1 (single isomer, unassigned) [Example 23 Isomer 1]
(2) CC1=C(C(=O)N2CCCCS2(=O)=O)C(c2ccc(Cl)c(Cl)c2)n2nc(C)cc2N1 (single isomer, unassigned) [Example 84 Isomer 1]
(3) CCN(CC)S(=O)(=O)C1=C(C)Nc2cc(C)nn2C1c1ccc(Cl)c(Cl)c1 (single isomer, unassigned) [Example 61 Isomer 1]
[ask] sort_by: Kv1.5% inhibition; order: ascending; scope: items listed above // list labels; follow requested order
[reply] 1, 2, 3
(1: 6.5%, 2: 19%, 3: 90.5%)

====

target: Kv1.5 (Homo sapiens); assay: Kv1.5 inhibition assay (IKur inhibitor assay per cited references); assay type: cell-based; settings: at 0.3 μM
Readout Name: Kv1.5% inhibition (%)

CC1=C(S(=O)(=O)NC(C)(C)C)C(c2ccc(Cl)c(Cl)c2)n2nc(C(F)(F)F)cc2N1 (single isomer, unassigned) [Example 58 Isomer 2] = 37.7

(1) CC1=C(S(=O)(=O)N2CCOCC2)C(c2ccc(Cl)c(Cl)c2)n2nc(C(F)(F)F)cc2N1 (single isomer, unassigned) [Example 66 Isomer 2]
(2) COc1ccc(S(=O)(=O)C2=C(C)Nc3cc(C(F)(F)F)nn3C2c2ccc(Cl)cc2)cc1 (single isomer, unassigned) [Example 25 Isomer 2]
[ask] Looking at 1 and 2 , which one comes out lower in Kv1.5% inhibition terms? Kindly give the label for the entry you pick.
[reply] 1

Attribution: patent US7507730B2
